# Target: Human DGAT1 (Homo sapiens, UniProt O75907)
# Construct: made in house; host or cells: Pichia pastoris (printed 'Pichia pastris'), vector pPICZA; the membrane fraction served as enzyme source
# Sequence (O75907 whole entry): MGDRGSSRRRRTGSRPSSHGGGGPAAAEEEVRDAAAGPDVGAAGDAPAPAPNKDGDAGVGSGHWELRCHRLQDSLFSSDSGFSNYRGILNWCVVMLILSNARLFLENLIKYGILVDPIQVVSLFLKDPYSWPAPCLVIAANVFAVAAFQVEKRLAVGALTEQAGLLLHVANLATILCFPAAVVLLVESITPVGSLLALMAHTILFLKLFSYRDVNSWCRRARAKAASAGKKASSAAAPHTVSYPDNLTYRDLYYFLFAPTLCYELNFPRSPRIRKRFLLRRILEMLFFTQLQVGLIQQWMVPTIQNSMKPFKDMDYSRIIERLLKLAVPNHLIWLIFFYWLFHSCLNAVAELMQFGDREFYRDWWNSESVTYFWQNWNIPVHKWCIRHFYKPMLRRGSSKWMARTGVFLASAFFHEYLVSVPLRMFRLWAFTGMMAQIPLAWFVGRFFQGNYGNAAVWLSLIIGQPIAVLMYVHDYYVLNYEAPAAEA
# Assay protocol: DGAT1 Inhibitory Activity Test ([14C]-oleoyl-CoA, DGAT1-expressed yeast membrane fraction)
# Format: biochemical
# Study conditions: Table 6, room temperature, 30 minutes
pIC50: −log10 of the molar value.
Measured metric: pIC50

* O=C(NC1(C(=O)N[C@@H]2CC(=O)c3ccccc3N(Cc3cc(C(F)(F)F)cc(C(F)(F)F)c3)C2=O)CCC1)c1nccs1 [Example 52] | 6.60
* O=C(NC1(C(=O)N[C@@H]2CC(=O)c3ccccc3N(Cc3cc(C(F)(F)F)cc(C(F)(F)F)c3)C2=O)CC1)c1nccs1 [Example 50] | 7.19

I. CC(C)(C)OC(=O)NC1(C(=O)N[C@@H]2CC(=O)c3ccccc3N(Cc3cc(C(F)(F)F)cc(C(F)(F)F)c3)C2=O)CCC1 [Example 51]
II. O=C(NC1(C(=O)N[C@@H]2CC(=O)c3ccccc3N(Cc3cc(C(F)(F)F)cc(C(F)(F)F)c3)C2=O)CCC1)c1ccc(F)cc1 [Example 53]
// query Between the two listed entries I and II , which has its pIC50 at the higher number? In your reply, give the label of the chosen option.
// result I
(I: 7.39, II: 7.11)
